# Test system: SF-295
# TEST_DETAILS: NCI tumour cell line growth inhibition, 48 h
Active and inactive are the calls of the source. No stated cut-off is given here; in the data, active = GI50 up to about 1.1 µM and inactive = higher.
Pick one and only one: 1.0 (active), 0.0 (inactive)

What outcome does the record of this test show for CCC1NC(=O)C(NC(=O)c2ncccc2O)C(C)OC(=O)C(c2ccccc2)NC(=O)C2CC(=O)CCN2C(=O)C(Cc2ccccc2)N(C)C(=O)C2CCCN2C1=O (stereo unspecified) ?
0.0

Per the records of this test, what outcome belongs to CNC(=S)NC(=S)N(C)C ?
0.0

Identify the outcome logged in this assay for the molecule shown: COc1cccc(N2C(=O)CS(=O)(=O)C2c2cccc(Oc3ccccc3)c2)c1 (stereo unspecified)
0.0

Others:
Tell me the assay call for CC(C)CCC[C@@H](C)[C@H]1CC[C@H]2[C@@H]3CC=C4C[C@@H](OC(=O)c5cccc6c(=O)c7ccccc7[nH]c56)CC[C@]4(C)[C@H]3CC[C@]12C please.
0.0

Tell me the recorded outcome of this test for Nc1ccc(CCN2CCN(CCCc3ccccc3)CC2)cc1 .
0.0

Which result was noted for this molecule in the test: COc1cc2nc(-c3cccs3)nc(N3CCN(c4ccccc4)CC3)c2cc1OC
0.0

Each molecule tested received a call. Report the one for Nn1c(S)nnc1CCCCCCCCc1nnc(S)n1N .
0.0

What outcome does the record of this test show for COc1ccc2c(c1)CC1c3c(ccc(OC)c3O)CC2N1C (stereo unspecified) ?
0.0

Could you check what this test reported for CCN(CC)C(=S)SCC(=O)Nc1nc2c(s1)CCCC2 ?
0.0

Write down the call the test reported for this molecule. Item: COC(=O)C1(C(=O)OC)CC2=C(S(=O)(=O)c3ccccc3)C[C@@H](C#N)[C@H]2C1
0.0

What outcome does the record of this test show for C/C(=N\N)C(CN(C)C)C(c1ccccc1)c1c(O)c2ccccc2oc1=O (stereo unspecified) ?
0.0

###

# System: BT-549
# TEST_DETAILS: NCI tumour cell line growth inhibition, 48 h
Calls of active or inactive are those of the source. Cut-off read from the data, not from the text of the source: active = GI50 up to about 1.1 µM and inactive = higher.
QUANTITY_MEASURED: GI50

Kindly state the measured GI50 obtained for COc1ccc2c(c1)CC[C@@H]1[C@@H]2CC[C@]2(C)C(=O)/C(=C/c3ccc(C#N)cc3)C[C@@H]12 with BT-549.
> 100 µM (inactive)

GET /values?readout=GI50&system=BT-549&item= CC(=O)/C=C/CCC(=O)/C=C/C(=O)OC(CCC(=O)/C=C/C(=O)O)CC(C)=O (stereo unspecified)
> 100 µM (inactive)

Others:
Field: GI50 (BT-549). Entry: O=C(O)c1cc2c(cc1CC(Cc1ccc3c(c1)CCCC3)C(=O)O)CCCC2 (stereo unspecified)
59.2 µM (inactive)

Field: GI50 (BT-549). Entry: Cc1cccc(Cl)c1NCC(O)CN1CCN(C)CC1 (stereo unspecified)
> 100 µM (inactive)

Write down the reported GI50 of COC(=O)c1cc2ccc(N)nc2[nH]c1=O , test system: BT-549.
> 100 µM (inactive)

Param readout = GI50; param system = BT-549; param query = CN1CCN(c2ccc(-n3cc(C(=O)O)c(=O)c4cc(F)c(N5CCN(C)CC5)cc43)nc2)CC1 ; response: value
80 µM (inactive)

API: value(readout= GI50, system= BT-549, query= O=C1C=CC(=O)C(CNc2ccc(C(=O)OCc3ccccc3)cc2)=C1 )
2.56 µM (inactive)

Could you share what GI50 was measured for CC1=NN(c2nc(N)nc(CC#N)n2)C(C)(C)C1 , tested on BT-549?
> 100 µM (inactive)

Given the entry CC1=CC23C(COC(=O)C24CO4)C(C(=O)O)=CC3C1C (stereo unspecified) , what GI50 was observed with BT-549?
4.9 µM (inactive)

Identify the measured GI50 of COC(=O)CCCc1ccc2c(c1)CCC2 for BT-549.
> 100 µM (inactive)

Observed GI50 on BT-549 for COC(=O)C1(C(=O)OC)CC2=C(S(=O)(=O)c3ccccc3)C[C@@H](C#N)[C@H]2C1 , please.
71.8 µM (inactive)

Provenance of the data: ChEMBL document CHEMBL1201862
